Where do these numbers come from? They come from patent US9872493B2.

System: Nicotiana benthamiana
RUN_DESCRIPTION: Test for evaluating growth promotion under low-temperature stress by hydroponics of Nicotiana benthamiana (Test Examples 4-6)
Format: in vivo
EXPERIMENTAL_SETUP: compound at 0.1 ppm, 7 days at 1.5±1.0° C. low-temperature stress, then 3 days at 22° C., green leaf area vs untreated control, read-out: value of a relative leaf area (equation (1))
MEASURED_PARAMETER: relative green leaf area after low-temperature stress at 0.1 ppm

Known results for molecules:
Task item: Retrieve relative green leaf area after low-temperature stress at 0.1 ppm measured for COC(=O)c1csc2cc(C(F)(F)F)ccc12 and print it.
Reply: ≥ 5%

Task item: Please list relative green leaf area after low-temperature stress at 0.1 ppm recorded for the molecule O=C(O)c1cccc2cc(C(F)(F)F)sc12
Reply: ≥ 5%

Task item: Please indicate relative green leaf area after low-temperature stress at 0.1 ppm recorded for CNC(=O)c1csc2cc(C(F)(F)F)ccc12
Reply: ≥ 5%

Task item: Return relative green leaf area after low-temperature stress at 0.1 ppm for the following molecule: COC(=O)c1cccc2sc(C(F)(F)F)cc12
Reply: ≥ 5%

Below are 3 molecules. Give each one its relative green leaf area after low-temperature stress at 0.1 ppm.
1. Cc1sc2ccccc2c1C(=O)O
2. CCOC(=O)c1c(C(F)(F)F)sc2ccccc12
3. O=C(O)c1csc2ccc(C(F)(F)F)cc12

Reply:
1: ≥ 5%; 2: ≥ 5%; 3: ≥ 5%
